Test system: Mycobacterium tuberculosis Erdman (autoluminescent)
Test: GRinf, maximum normalised growth rate inhibition (three-drug combination) (unitless (-1 to 1)); higher = less effect (negative = killing)
Conditions: in vitro model: cholesterol-high 0.2 mM; time point: constant (~7 days, model-specific)
result_type: GRinf
No unit in the answer, only the number.

Guide cases for GRinf, answers given:
compound	GRinf
COc1nc2ccc(Br)cc2cc1[C@@H](c1ccccc1)[C@@](O)(CCN(C)C)c1cccc2ccccc12 [bedaquiline] + CC(C)/N=c1\cc2n(-c3ccc(Cl)cc3)c3ccccc3nc-2cc1Nc1ccc(Cl)cc1 [clofazimine] + CO[C@H]1/C=C/O[C@@]2(C)Oc3c(C)c(O)c4c(O)c(c(/C=N/N5CCN(C)CC5)c(O)c4c3C2=O)NC(=O)/C(C)=C\C=C\[C@H](C)[C@H](O)[C@@H](C)[C@@H](O)[C@@H](C)[C@H](OC(C)=O)[C@@H]1C [rifampicin]	-0.277
NNC(=O)c1ccncc1 [isoniazid] + CC(=O)NC[C@H]1CN(c2ccc(N3CCOCC3)c(F)c2)C(=O)O1 [linezolid] + COc1c(N2C[C@@H]3CCCN[C@@H]3C2)c(F)cc2c(=O)c(C(=O)O)cn(C3CC3)c12 [moxifloxacin]	-0.214
CC(C)/N=c1\cc2n(-c3ccc(Cl)cc3)c3ccccc3nc-2cc1Nc1ccc(Cl)cc1 [clofazimine] + CC[C@@H](CO)NCCN[C@@H](CC)CO [ethambutol] + NNC(=O)c1ccncc1 [isoniazid]	-0.518
CC[C@@H](CO)NCCN[C@@H](CC)CO [ethambutol] + NNC(=O)c1ccncc1 [isoniazid] + CO[C@H]1/C=C/O[C@@]2(C)Oc3c(C)c(O)c4c(O)c(c(/C=N/N5CCN(C6CCCC6)CC5)c(O)c4c3C2=O)NC(=O)/C(C)=C\C=C\[C@H](C)[C@H](O)[C@@H](C)[C@@H](O)[C@@H](C)[C@H](OC(C)=O)[C@@H]1C [rifapentine]	-0.465

Please find the next compound below.
Exercise: Item CC(C)/N=c1\cc2n(-c3ccc(Cl)cc3)c3ccccc3nc-2cc1Nc1ccc(Cl)cc1 [clofazimine] + COc1c(N2C[C@@H]3CCCN[C@@H]3C2)c(F)cc2c(=O)c(C(=O)O)cn(C3CC3)c12 [moxifloxacin] + CO[C@H]1/C=C/O[C@@]2(C)Oc3c(C)c(O)c4c(O)c(c(/C=N/N5CCN(C)CC5)c(O)c4c3C2=O)NC(=O)/C(C)=C\C=C\[C@H](C)[C@H](O)[C@@H](C)[C@@H](O)[C@@H](C)[C@H](OC(C)=O)[C@@H]1C [rifampicin] has what recorded GRinf?
Solution: -0.695
